- tested_target: T1, IL10Rα/IL2Rγ receptor (human) (UniProt Q13651)
- T1 sequence (looked up) 1: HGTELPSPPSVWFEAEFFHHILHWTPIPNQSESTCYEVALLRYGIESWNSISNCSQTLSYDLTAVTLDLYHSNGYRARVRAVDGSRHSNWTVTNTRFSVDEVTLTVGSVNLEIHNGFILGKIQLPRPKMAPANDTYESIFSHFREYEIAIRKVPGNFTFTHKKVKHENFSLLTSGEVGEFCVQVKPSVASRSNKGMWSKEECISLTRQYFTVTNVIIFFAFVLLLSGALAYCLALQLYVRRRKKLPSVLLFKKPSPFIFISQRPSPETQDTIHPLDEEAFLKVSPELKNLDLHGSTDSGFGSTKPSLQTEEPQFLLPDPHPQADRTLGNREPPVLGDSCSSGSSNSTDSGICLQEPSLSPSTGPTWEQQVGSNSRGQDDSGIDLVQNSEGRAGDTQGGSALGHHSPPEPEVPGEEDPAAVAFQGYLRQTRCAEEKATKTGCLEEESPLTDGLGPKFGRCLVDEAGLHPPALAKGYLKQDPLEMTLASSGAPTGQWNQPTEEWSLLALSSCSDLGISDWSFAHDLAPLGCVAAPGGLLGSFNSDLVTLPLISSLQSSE
- T1 sequence (looked up) 2: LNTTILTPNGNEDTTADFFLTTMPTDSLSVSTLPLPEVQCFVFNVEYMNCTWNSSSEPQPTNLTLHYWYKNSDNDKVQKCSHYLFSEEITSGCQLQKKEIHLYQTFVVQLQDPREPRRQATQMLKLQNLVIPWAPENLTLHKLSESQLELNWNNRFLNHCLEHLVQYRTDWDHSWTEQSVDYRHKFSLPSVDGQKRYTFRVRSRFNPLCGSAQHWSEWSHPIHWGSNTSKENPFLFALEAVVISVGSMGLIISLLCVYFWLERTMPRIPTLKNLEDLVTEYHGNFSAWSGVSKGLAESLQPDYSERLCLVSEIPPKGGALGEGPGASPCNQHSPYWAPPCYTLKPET
- assay_name: cell-based or functional assay
readout_name: Granzyme A secretion, CD8 T cells, at 100 µM (pg/mL)

binder: hIL10Ra_VHH14 - hIL2Rg_VHH19, linker GS, tag his (bispecific antibody, not shown: small tags and cut ends) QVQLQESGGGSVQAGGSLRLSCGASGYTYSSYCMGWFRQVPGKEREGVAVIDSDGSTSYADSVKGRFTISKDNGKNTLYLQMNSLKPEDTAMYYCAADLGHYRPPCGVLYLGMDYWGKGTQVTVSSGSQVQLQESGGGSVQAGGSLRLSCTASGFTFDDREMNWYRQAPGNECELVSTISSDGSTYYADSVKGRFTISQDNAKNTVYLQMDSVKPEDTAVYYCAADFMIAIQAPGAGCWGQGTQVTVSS
u: pg/mL
assay_result: 28400
--
binder: hIL10Ra_VHH14 - hIL2Rg_VHH19, linker GGSGGS, tag his (bispecific antibody, not shown: small tags and cut ends) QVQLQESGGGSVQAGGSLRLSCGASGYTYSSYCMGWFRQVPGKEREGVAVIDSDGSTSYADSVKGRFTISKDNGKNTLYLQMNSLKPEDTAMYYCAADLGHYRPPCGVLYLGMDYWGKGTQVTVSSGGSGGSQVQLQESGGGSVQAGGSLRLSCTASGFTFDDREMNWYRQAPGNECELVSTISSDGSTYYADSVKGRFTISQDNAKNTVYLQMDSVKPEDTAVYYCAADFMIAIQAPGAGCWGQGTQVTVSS
u: pg/mL
assay_result: 25600
--
binder: hIL10Ra_VHH14 - hIL2Rg_VHH19, linker GGGS, tag Fc (bispecific antibody, not shown: a dimerising Fc or GST) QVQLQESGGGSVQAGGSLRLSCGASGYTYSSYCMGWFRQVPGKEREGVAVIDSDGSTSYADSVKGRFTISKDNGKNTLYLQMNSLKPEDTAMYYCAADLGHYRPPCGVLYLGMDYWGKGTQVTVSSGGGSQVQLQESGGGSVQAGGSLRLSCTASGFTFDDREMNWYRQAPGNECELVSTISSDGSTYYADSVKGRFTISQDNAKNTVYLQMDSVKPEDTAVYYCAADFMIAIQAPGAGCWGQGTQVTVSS
u: pg/mL
assay_result: 25700
--
binder: hIL10Ra_VHH14 - hIL2Rg_VHH19, linker GGGSGGGS, tag his (bispecific antibody, not shown: small tags and cut ends) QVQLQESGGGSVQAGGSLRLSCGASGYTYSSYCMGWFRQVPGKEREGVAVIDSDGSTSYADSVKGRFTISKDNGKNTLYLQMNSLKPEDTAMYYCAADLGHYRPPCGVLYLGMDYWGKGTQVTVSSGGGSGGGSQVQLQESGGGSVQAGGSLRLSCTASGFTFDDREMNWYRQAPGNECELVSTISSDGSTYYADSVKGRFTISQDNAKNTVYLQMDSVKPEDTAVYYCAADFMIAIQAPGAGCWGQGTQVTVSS
u: pg/mL
assay_result: 24800
